Recorded relative viability by entry
Tested on: KHOS-NP
Run Description: relative viability vs DMSO control (72 h) (fraction); higher = more viable cells
Condition Parameters: 0.00051 µM
Output: the number by itself.

Record excerpt, results attached:
- O=C(c1ccc(F)c(F)c1Nc1ccc(I)cc1F)N1CC(O)([C@@H]2CCCCN2)C1 [Cobimetinib]: 1.1
- CN(C)C/C=C/C(=O)Nc1cc2c(Nc3ccc(F)c(Cl)c3)ncnc2cc1O[C@H]1CCOC1 [Afatinib]: 1.08
- COc1cc(N2CCC(N3CCN(C)CC3)CC2)ccc1Nc1ncc(Cl)c(Nc2ccccc2P(C)(C)=O)n1 [Brigatinib]: 1.06
- COC(=O)c1ccc2c(c1)NC(=O)/C2=C(\Nc1ccc(N(C)C(=O)CN2CCN(C)CC2)cc1)c1ccccc1 [Nintedanib]: 1.06

Which relative viability is reported for this compound? CCOc1cc2ncc(C#N)c(Nc3ccc(OCc4ccccn4)c(Cl)c3)c2cc1NC(=O)/C=C/CN(C)C [Neratinib]
1.02

// next record CNC(=O)c1c(C)oc2cc(Oc3ncnc4cc(OC)c(OC)cc34)ccc12 [Fruquintinib]
1.11

// next record C[C@@H]1CN(C(=O)c2ccc(NC(=O)c3cc(O[C@H](C)c4c(Cl)ccc(F)c4Cl)c(N)nn3)cc2)C[C@H](C)N1 [Ensartinib]
1.04

// next record CN(C)C(=O)c1cc2cnc(Nc3ccc(N4CCNCC4)cn3)nc2n1C1CCCC1 [Ribociclib]
1.07

The origin of these recorded values is the supplement of paper PMC10883282.
